Reference source: patent US20080021044A1

- TEST METHOD NOTES: Solubility of the compound of formula (I) as a function of time in aqueous solvents (HPLC)
- Assay type: physicochemical
- SETTINGS: aqueous buffer, thermodynamic from solid; 0.1N NaOH (pH ˜12.8); 1 hr; 25° C. water bath, agitated
READOUT TYPE: solubility at 1 h (µg/mL)

MOLECULE: Cc1cnc(NCC(F)(F)c2ccccc2)c(=O)n1CC(=O)NCCONC(=N)N [compound of formula (I)]
UNIT: µg/mL
ENDPOINT RESULT: 980

* * *

- TEST METHOD NOTES: Solubility of the compound of formula (I) as a function of time in aqueous solvents (HPLC)
- Assay type: physicochemical
- SETTINGS: aqueous buffer, thermodynamic from solid; citrate buffer pH 4; 48 hr; 25° C. water bath, agitated
READOUT TYPE: solubility at 48 h (µg/mL)

SMILES CODE: Cc1cnc(NCC(F)(F)c2ccccc2)c(=O)n1CC(=O)NCCONC(=N)N
UNIT: µg/mL
ENDPOINT RESULT: 2700

* * *

- TEST METHOD NOTES: Solubility of the compound of formula (I) as a function of time in aqueous solvents (HPLC)
- Assay type: physicochemical
- SETTINGS: aqueous buffer, thermodynamic from solid; citrate buffer pH 2; 4 hr; 25° C. water bath, agitated

MOLECULE: Cc1cnc(NCC(F)(F)c2ccccc2)c(=O)n1CC(=O)NCCONC(=N)N [compound of formula (I)]
solubility at 4 h (mg/mL): 10.4

* * *

- TEST METHOD NOTES: Solubility of the compound of formula (I) as a function of time in aqueous solvents (HPLC)
- Format: physicochemical
- SETTINGS: aqueous buffer, thermodynamic from solid; borate buffer pH 10; 24 hr; 25° C. water bath, agitated
READOUT TYPE: solubility at 24 h (µg/mL)

COMPOUND: Cc1cnc(NCC(F)(F)c2ccccc2)c(=O)n1CC(=O)NCCONC(=N)N [compound of formula (I)]
READOUT TYPE: solubility at 24 h
UNIT: µg/mL
ENDPOINT RESULT: 1000

* * *

- TEST METHOD NOTES: Solubility of the compound of formula (I) as a function of time in aqueous solvents (HPLC)
- Type: physicochemical
- SETTINGS: aqueous buffer, thermodynamic from solid; citrate buffer pH 2; 48 hr; 25° C. water bath, agitated
- Procedure: The sample vials were pulled out at each time point, the pH was measured and the sample was filtered a 0.45 μm PTFE membrane filter. The filtrate was appropriately diluted with the dilution solvent and the concentration of the compound was measured using HPLC. […]

SMILES CODE: Cc1cnc(NCC(F)(F)c2ccccc2)c(=O)n1CC(=O)NCCONC(=N)N
UNIT: µg/mL
solubility at 48 h: 7500

* * *

- TEST METHOD NOTES: Solubility of the compound of formula (I) as a function of time in aqueous solvents (HPLC)
- Type: physicochemical
- SETTINGS: aqueous buffer, thermodynamic from solid; citrate buffer pH 2; 1 hr; 25° C. water bath, agitated
READOUT TYPE: solubility at 1 h (µg/mL)

SMILES CODE: Cc1cnc(NCC(F)(F)c2ccccc2)c(=O)n1CC(=O)NCCONC(=N)N
ENDPOINT RESULT: 8700

* * *

- TEST METHOD NOTES: Solubility of the compound of formula (I) as a function of time in aqueous solvents (HPLC)
- Assay type: physicochemical
- SETTINGS: aqueous buffer, thermodynamic from solid; citrate buffer pH 6; 1 hr; 25° C. water bath, agitated
READOUT TYPE: solubility at 1 h (µg/mL)

SMILES CODE: Cc1cnc(NCC(F)(F)c2ccccc2)c(=O)n1CC(=O)NCCONC(=N)N
ENDPOINT RESULT: 1800
